molecular target: ACVR2B (human); assay: KINOMEscan competition binding; conditions: compound 10.0 µM
EXPERIMENTAL ENDPOINT: kinase still bound, per cent of control (%)
Field: numeric (%). Do not append units.

Examples with answers:
[
  {
    "COMPOUND": "O=C(NC1CC1)c1cccc(-c2ccc3c(NC(=O)C4CC4)n[nH]c3c2)c1",
    "READOUT UNIT": "%",
    "kinase still bound, per cent of control": 84
  },
  {
    "COMPOUND": "N#Cc1c(NC(=O)c2cccc3ccccc23)sc2c1CCCC2",
    "READOUT UNIT": "%",
    "kinase still bound, per cent of control": 67
  },
  {
    "COMPOUND": "O=C1Nc2ccc(I)cc2/C1=C/c1cc(Br)c(O)c(Br)c1",
    "READOUT UNIT": "%",
    "kinase still bound, per cent of control": 83
  }
]

Documented kinase still bound, per cent of control of COc1cc(C(=O)NC2CCN(C)CC2)ccc1Nc1ncc2c(n1)N(C1CCCC1)CCC(=O)N2C(C)C : 100

Documented kinase still bound, per cent of control of C[C@@H](Oc1cc(-n2cnc3ccc(CN4CCN(C)CC4)cc32)sc1C(N)=O)c1ccccc1C(F)(F)F : 100

Documented kinase still bound, per cent of control of C=CC(=O)Nc1cc(NC(=O)c2ccc(C)c(NC(=O)c3ccno3)c2)cc(C(F)(F)F)c1 : 100

###

molecular target: UniProtKB Q9Y616; experiment: KINOMEscan competition binding; settings: compound 10.0 µM
Sequence (Q9Y616 whole entry, looked up): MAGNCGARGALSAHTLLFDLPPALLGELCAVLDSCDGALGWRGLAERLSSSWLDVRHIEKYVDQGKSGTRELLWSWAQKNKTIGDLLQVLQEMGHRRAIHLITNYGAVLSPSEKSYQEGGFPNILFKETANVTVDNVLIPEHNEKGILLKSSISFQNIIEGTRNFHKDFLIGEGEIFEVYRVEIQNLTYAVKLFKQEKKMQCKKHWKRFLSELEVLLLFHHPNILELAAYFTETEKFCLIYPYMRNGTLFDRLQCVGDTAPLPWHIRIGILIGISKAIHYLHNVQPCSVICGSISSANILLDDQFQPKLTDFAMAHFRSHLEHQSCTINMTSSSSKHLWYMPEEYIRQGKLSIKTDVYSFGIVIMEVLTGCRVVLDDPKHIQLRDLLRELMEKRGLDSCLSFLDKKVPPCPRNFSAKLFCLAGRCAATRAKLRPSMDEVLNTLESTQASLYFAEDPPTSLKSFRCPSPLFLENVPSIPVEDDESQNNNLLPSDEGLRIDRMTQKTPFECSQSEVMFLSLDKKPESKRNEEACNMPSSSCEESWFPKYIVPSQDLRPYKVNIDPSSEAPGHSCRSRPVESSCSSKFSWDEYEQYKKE
EXPERIMENTAL ENDPOINT: kinase still bound, per cent of control (%)
Field: numeric (%). Do not append units.

Examples with answers:
[
  {
    "QUERY SMILES": "OCCCNc1cc(-c2ccnc(Nc3cccc(Cl)c3)n2)ccn1",
    "EXPERIMENTAL ENDPOINT": "kinase still bound, per cent of control",
    "ASSAY RESULT": 100
  },
  {
    "QUERY SMILES": "C=CC(=O)Nc1cccc(Nc2nc(N[C@H]3CC[C@H](N(C)C)CC3)nc3c2ncn3C(C)C)c1",
    "EXPERIMENTAL ENDPOINT": "kinase still bound, per cent of control",
    "ASSAY RESULT": 38
  },
  {
    "QUERY SMILES": "CCC(=O)N1CCN(c2ccc(-n3c(=O)ccc4cnc5ccc(-c6cnc7ccccc7c6)cc5c43)cc2C(F)(F)F)CC1",
    "EXPERIMENTAL ENDPOINT": "kinase still bound, per cent of control",
    "ASSAY RESULT": 27
  }
]

Documented kinase still bound, per cent of control of O=C(O)c1ccc(Nc2ncc3c(n2)-c2ccc(Cl)cc2C(c2c(F)cccc2F)=NC3)cc1 : 15

Documented kinase still bound, per cent of control of Cc1ccc(NC(=O)c2cccc(C(C)(C)C#N)c2)cc1Nc1ccc2ncn(C)c(=O)c2c1 : 95

Documented kinase still bound, per cent of control of C=CC(=O)Nc1cc(NC(=O)c2ccc(C)c(NC(=O)c3ccno3)c2)cc(C(F)(F)F)c1 : 100

Documented kinase still bound, per cent of control of Cc1ccc(C(=O)Nc2cccc(C(F)(F)F)c2)cc1Nc1cncc(C(N)=O)c1 : 100

Documented kinase still bound, per cent of control of C=CC(=O)Nc1cccc(Oc2nc(Nc3ccc(N4CCN(C)CC4)cc3OC)ncc2Cl)c1 : 34

Documented kinase still bound, per cent of control of CCOc1cc2ncc(C#N)c(Nc3ccc(OCc4ccccn4)c(Cl)c3)c2cc1NC(=O)/C=C/CN(C)C : 85

###

target: MAP3K4 (human) (UniProt Q9Y6R4); test: KINOMEscan competition binding; settings: compound 10.0 µM
Sequence (Q9Y6R4 whole entry, looked up): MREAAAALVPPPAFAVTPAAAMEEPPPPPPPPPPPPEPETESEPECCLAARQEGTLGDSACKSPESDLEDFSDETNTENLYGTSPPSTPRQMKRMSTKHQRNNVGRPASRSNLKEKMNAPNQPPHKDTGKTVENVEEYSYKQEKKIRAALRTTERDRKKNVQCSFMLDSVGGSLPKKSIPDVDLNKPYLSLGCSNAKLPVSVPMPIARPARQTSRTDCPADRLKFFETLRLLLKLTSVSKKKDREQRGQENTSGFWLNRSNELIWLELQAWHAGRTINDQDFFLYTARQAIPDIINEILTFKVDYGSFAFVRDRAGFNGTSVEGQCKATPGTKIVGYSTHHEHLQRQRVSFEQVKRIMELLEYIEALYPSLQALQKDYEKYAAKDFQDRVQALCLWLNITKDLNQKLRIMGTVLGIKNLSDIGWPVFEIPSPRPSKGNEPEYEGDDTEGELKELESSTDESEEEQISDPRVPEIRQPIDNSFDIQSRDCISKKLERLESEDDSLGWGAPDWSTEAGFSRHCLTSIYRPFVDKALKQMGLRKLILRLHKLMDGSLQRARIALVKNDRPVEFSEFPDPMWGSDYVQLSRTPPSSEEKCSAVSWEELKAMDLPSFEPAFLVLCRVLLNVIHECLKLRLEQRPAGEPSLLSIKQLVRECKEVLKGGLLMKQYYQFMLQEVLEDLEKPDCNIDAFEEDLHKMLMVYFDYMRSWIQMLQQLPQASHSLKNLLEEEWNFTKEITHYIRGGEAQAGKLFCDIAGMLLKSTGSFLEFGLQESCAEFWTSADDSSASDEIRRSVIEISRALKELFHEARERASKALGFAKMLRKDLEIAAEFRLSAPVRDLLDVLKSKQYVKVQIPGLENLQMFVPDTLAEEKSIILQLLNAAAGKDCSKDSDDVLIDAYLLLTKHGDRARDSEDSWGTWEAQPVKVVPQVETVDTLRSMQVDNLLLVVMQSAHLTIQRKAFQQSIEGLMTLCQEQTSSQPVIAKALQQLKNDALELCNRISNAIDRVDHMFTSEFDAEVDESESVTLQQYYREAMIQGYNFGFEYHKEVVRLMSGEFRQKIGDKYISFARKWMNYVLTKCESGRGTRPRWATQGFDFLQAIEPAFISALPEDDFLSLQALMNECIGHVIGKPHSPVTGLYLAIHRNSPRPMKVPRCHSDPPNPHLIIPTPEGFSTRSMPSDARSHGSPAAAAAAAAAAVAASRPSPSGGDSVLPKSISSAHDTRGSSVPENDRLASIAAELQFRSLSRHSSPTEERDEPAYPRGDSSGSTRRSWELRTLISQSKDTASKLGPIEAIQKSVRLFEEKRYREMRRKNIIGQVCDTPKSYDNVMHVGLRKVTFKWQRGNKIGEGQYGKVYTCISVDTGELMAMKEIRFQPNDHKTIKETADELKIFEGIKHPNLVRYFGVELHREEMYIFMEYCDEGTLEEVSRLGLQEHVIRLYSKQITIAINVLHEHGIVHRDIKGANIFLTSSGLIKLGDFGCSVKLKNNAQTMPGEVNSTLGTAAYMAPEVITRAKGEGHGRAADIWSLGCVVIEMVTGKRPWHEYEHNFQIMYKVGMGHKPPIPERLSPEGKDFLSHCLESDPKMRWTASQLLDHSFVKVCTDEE
Here, each record is paired with measured kinase still bound, per cent of control data.
Field: numeric (%). Do not append units.

Examples with answers:
[
  {
    "MOLECULE": "CN(C)C/C=C/C(=O)Nc1cccc(Nc2ncc3c(n2)N(C)c2ccccc2C(=O)N3C)c1",
    "kinase still bound, per cent of control [%]": 73
  },
  {
    "MOLECULE": "COc1cc(C(=O)NC2CCN(C)CC2)ccc1Nc1ncc2c(n1)N(C1CCCC1)CCC(=O)N2C(C)C",
    "kinase still bound, per cent of control [%]": 100
  },
  {
    "MOLECULE": "Cc1ccc(C(=O)Nc2cccc(C(F)(F)F)c2)cc1Nc1cncc(C(N)=O)c1",
    "kinase still bound, per cent of control [%]": 100
  },
  {
    "MOLECULE": "CC[C@@H]1C(=O)N(C)c2cnc(Nc3ccc(C(=O)NC4CCN(C)CC4)cc3OC)nc2N1C1CCCC1",
    "kinase still bound, per cent of control [%]": 100
  },
  {
    "MOLECULE": "CCC(=O)N1CCN(c2ccc(-n3c(=O)ccc4cnc5ccc(-c6cnc7ccccc7c6)cc5c43)cc2C(F)(F)F)CC1",
    "kinase still bound, per cent of control [%]": 47
  }
]

Value (kinase still bound, per cent of control, MAP3K4 (human) (UniProt Q9Y6R4)) for record COc1cc(N2CCN(C)CC2)ccc1Nc1nc(N)c(C(=O)c2c(Cl)cccc2Cl)s1 = 100

Value (kinase still bound, per cent of control, MAP3K4 (human) (UniProt Q9Y6R4)) for record OCCCNc1cc(-c2ccnc(Nc3cccc(Cl)c3)n2)ccn1 = 100

Value (kinase still bound, per cent of control, MAP3K4 (human) (UniProt Q9Y6R4)) for record Cc1cc([C@@H](C)Nc2ccccc2C(=O)O)c2nc(N3CCOCC3)cc(=O)n2c1 = 100

Value (kinase still bound, per cent of control, MAP3K4 (human) (UniProt Q9Y6R4)) for record COc1cc(C(=O)NC2CCN(C)CC2)ccc1Nc1ncc2c(n1)N(C1CCCC1)C(C)CC(=O)N2C (centres undefined) = 100

###

biological target: MAPK12 (human) (UniProt P53778); assay: KINOMEscan competition binding; conditions: compound 10.0 µM
Sequence (P53778 whole entry, looked up): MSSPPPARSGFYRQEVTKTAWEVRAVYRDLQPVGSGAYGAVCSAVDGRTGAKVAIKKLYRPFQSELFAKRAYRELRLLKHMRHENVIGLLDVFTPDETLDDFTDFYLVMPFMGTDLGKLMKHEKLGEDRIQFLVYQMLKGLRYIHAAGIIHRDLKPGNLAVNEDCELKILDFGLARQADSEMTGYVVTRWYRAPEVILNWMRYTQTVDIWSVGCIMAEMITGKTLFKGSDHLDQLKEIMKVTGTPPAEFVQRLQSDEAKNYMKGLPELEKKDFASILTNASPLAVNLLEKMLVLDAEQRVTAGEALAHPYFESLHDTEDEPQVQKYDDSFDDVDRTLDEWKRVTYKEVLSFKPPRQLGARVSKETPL
EXPERIMENTAL ENDPOINT: kinase still bound, per cent of control (%)
Field: numeric (%). Do not append units.

Examples with answers:
[
  {
    "MOLECULE": "CCN1CCN(Cc2ccc(Nc3ncc4c(n3)N(C)c3ccccc3C(=O)N4C)cc2C(F)(F)F)CC1",
    "kinase still bound, per cent of control / %": 97
  },
  {
    "MOLECULE": "Cc1ccc2nc(NCCN)c3ncc(C)n3c2c1",
    "kinase still bound, per cent of control / %": 100
  },
  {
    "MOLECULE": "CC[C@@H]1C(=O)N(C)c2cnc(Nc3ccc(C(=O)NC4CCN(C)CC4)cc3OC)nc2N1C1CCCC1",
    "kinase still bound, per cent of control / %": 100
  }
]

Documented kinase still bound, per cent of control of Cc1cc([C@@H](C)Nc2ccccc2C(=O)O)c2nc(N3CCOCC3)cc(=O)n2c1 : 94

Documented kinase still bound, per cent of control of CCC(=O)N1CCN(c2ccc(-n3c(=O)ccc4cnc5ccc(-c6cnc7ccccc7c6)cc5c43)cc2C(F)(F)F)CC1 : 71

Documented kinase still bound, per cent of control of OCCCNc1cc(-c2ccnc(Nc3cccc(Cl)c3)n2)ccn1 : 100

Documented kinase still bound, per cent of control of CCOc1cc2ncc(C#N)c(Nc3ccc(OCc4ccccn4)c(Cl)c3)c2cc1NC(=O)/C=C/CN(C)C : 100

Documented kinase still bound, per cent of control of CN(C)C/C=C/C(=O)Nc1cccc(Nc2ncc3c(n2)N(C)c2ccccc2C(=O)N3C)c1 : 83

Documented kinase still bound, per cent of control of O=C1Nc2ccc(I)cc2/C1=C/c1cc(Br)c(O)c(Br)c1 : 74

Documented kinase still bound, per cent of control of C[C@@H](Oc1cc(-n2cnc3ccc(CN4CCN(C)CC4)cc32)sc1C(N)=O)c1ccccc1C(F)(F)F : 95

Documented kinase still bound, per cent of control of COc1cc(C(=O)NC2CCN(C)CC2)ccc1Nc1ncc2c(n1)N(C1CCCC1)C(C)CC(=O)N2C (centres undefined) : 100

Documented kinase still bound, per cent of control of N#Cc1c(NC(=O)c2cccc3ccccc23)sc2c1CCCC2 : 82

Documented kinase still bound, per cent of control of O=C(NOC[C@H](O)CO)c1ccc(F)c(F)c1Nc1ccc(I)cc1F : 100

Documented kinase still bound, per cent of control of COc1cc(N2CCN(C)CC2)ccc1Nc1nc(N)c(C(=O)c2c(Cl)cccc2Cl)s1 : 100

Documented kinase still bound, per cent of control of C=CC(=O)Nc1cccc(Oc2nc(Nc3ccc(N4CCN(C)CC4)cc3OC)ncc2Cl)c1 : 100

Documented kinase still bound, per cent of control of Nc1ccc(-c2ccc3ncc4ccc(=O)n(-c5cccc(C(F)(F)F)c5)c4c3c2)cn1 : 87

Documented kinase still bound, per cent of control of O=C(O)c1ccc(Nc2ncc3c(n2)-c2ccc(Cl)cc2C(c2c(F)cccc2F)=NC3)cc1 : 97

Documented kinase still bound, per cent of control of COc1cc(C(=O)NC2CCN(C)CC2)ccc1Nc1ncc2c(n1)N(C1CCCC1)CCC(=O)N2C(C)C : 100

Documented kinase still bound, per cent of control of C=CC(=O)Nc1cc(NC(=O)c2ccc(C)c(NC(=O)c3ccno3)c2)cc(C(F)(F)F)c1 : 96
